This listing pairs compounds with measured melting point.

Consider the reported melting point for these compounds:
[[record]]
compound = "CCCCCCCCCCCC(=O)OCc1nc(C)c(COC(=O)CCCCCCCCCCC)nc1C [Compound D12]"
value_reported = "55 to 56 °C"

[[record]]
compound = "CCCCCCCCCC(=O)OCc1nc(C)c(COC(=O)CCCCCCCCC)nc1C [Compound D10]"
value_reported = "46 to 47 °C"


Any idea what its melting point is? The compound is Cc1nc(COC(=O)C(C)(C)C)c(C)nc1COC(=O)C(C)(C)C [Compound D5] 80 to 82 °C

What measured melting point goes with CCCCCCCCCCCCCCCC(=O)OCc1nc(C)c(COC(=O)CCCCCCCCCCCCCCC)nc1C [Compound D16] ? 74 to 75 °C

Name the recorded melting point for CCCCCCCCCCCC(=O)OCc1nc(C)c(CO)nc1C [Compound M12] . 40 to 41 °C

Any idea what melting point was measured for CCCCCCCCCC(=O)OCc1nc(C)c(CO)nc1C [Compound M10] ? 31 to 32 °C

So what does the record say about melting point for CCCCCCCCCCCCCCCCCC(=O)OCc1nc(C)c(COC(=O)CCCCCCCCCCCCCCCCC)nc1C [Compound D18] ? 75 to 76 °C

What value of melting point has been reported for the following compound? Cc1nc(COC(=O)C(C)(C)C)c(C)nc1CO [Compound M5] 66 to 67 °C

Given the entry CCCCCCCCCCCCCCCC(=O)OCc1nc(C)c(CO)nc1C [Compound M16] , report its measured melting point. 60 to 62 °C
